# Assayed system: CDK2-NanoLuc fusion with CCNE1 in 293T or 293 cells (Homo sapiens)
# Construct: host or cells: 293T (ATCC CRL-3216) or 293 (ATCC CRL-1573)
# Assay info: NanoBRET Target Engagement (TE) Intracellular Kinase Assay, CDK2/CCNE1
# Assay type: cell-based
# Setup conditions: NanoBRET TE intracellular kinase assay, 2-hour incubation, read-out: NanoBRET-CDK2/E1 IC50
Listed next: entries and their corresponding IC50.
Readout: IC50 (nM)

compound=COc1cc(O)c(C=O)c(OCC(=O)Nc2cc([C@H]3CC[C@@H](OC(=O)NC4(C#N)CC4)C3)[nH]n2)c1 uom=nM recorded_measurement=10.3
compound="COc1cc(O)c(C=O)c2c1CC(C(=O)Nc1cc([C@H]3C[C@@H](OC(=O)N(C)N(C)C)C3)n[nH]1)C2 (single isomer, unassigned) [Compound 270]" uom=nM recorded_measurement=6.25
compound=COc1cc(O)c(C=O)c(-c2cc(C(=O)Nc3cc([C@H]4CC[C@@H](OC(=O)NC(C)C)C4)[nH]n3)n(C)n2)c1 uom=nM recorded_measurement=2.28
compound=COc1cc(O)c(C=O)c(OCC(=O)Nc2cc([C@H]3CC[C@@H](OC(=O)NCC4COC4)C3)[nH]n2)c1 uom=nM recorded_measurement=14.1
compound=COc1cc(O)c(C=O)c(OCC(=O)Nc2cc([C@H]3CC[C@@H](OC(=O)NCCOC(F)(F)F)C3)n[nH]2)c1 uom=nM recorded_measurement=2.19
compound=CCC[C@H](C)NC(=O)O[C@@H]1CC[C@H](c2cc(NC(=O)COc3cc(OC)cc(O)c3C=O)n[nH]2)C1 uom=nM recorded_measurement=2.45
